Below, each of the compounds is paired with its reported remaining at 0.5 h value.
experiment: Metabolic stability in rat liver microsomes assessed as parent compound remaining after 30 mins; format: ADME, microsome; conditions: read-out: Stability
Please reply with the bare figure in % and do not write the unit itself.

The following compounds have reported results that may help.
CC(=O)N[C@@H](C)/C=C/c1ccc(Oc2ccc3nc(C(C)(C)O)sc3c2Cl)nc1: 96
CCOc1nc2ccc(Oc3ccc(/C=C/[C@H](C)NC(C)=O)cn3)c(Cl)c2s1: 100
CC(=O)N[C@@H](C)/C=C/c1ccc(Oc2ccc3nc(C(C)C)sc3c2C(F)(F)F)nc1: 83
CC(=O)N[C@@H](C)/C=C/c1ccc(Oc2cc3sc(C)nc3cc2Cl)nc1: 83
CC(=O)N[C@@H](C)/C=C/c1ccc(Oc2ccc3nc(C(C)C)sc3c2Cl)nc1: 52
CC(=O)N[C@@H](C)/C=C/c1ccc(Oc2ccc3nc(C)sc3c2Cl)nc1: 75

Entry under test: CC(=O)N[C@@H](C)/C=C/c1ccc(Oc2ccc3nc(C(C)C)sc3c2F)nc1 . Its remaining at 0.5 h was 51

Entry under test: CC(=O)N[C@@H](C)/C=C/c1ccc(Oc2ccc3sc(C(C)C)nc3c2Cl)nc1 . Its remaining at 0.5 h was 77

###

assay: AUC in C57BL/6 mouse at 2.5 mg/kg, po; assay type: ADME, organism-based; conditions: in vivo
parameter: AUC (ng·h/mL)
Please reply with the bare figure in ng·h/mL and do not write the unit itself.

Entry under test: CCOc1nc2ccc(Oc3ccc(/C=C/[C@H](C)NC(C)=O)cn3)c(Cl)c2s1 . Its AUC was 99800

###

test: Plasma concentration in C57BL/6 mouse at 1 mg/kg, po measured at 6 hrs post dose by LC-MS analysis; assay type: ADME, organism-based
parameter: concentration at 6 h

Entry under test: CCOc1nc2ccc(Oc3ccc(/C=C/[C@H](C)NC(C)=O)cn3)c(Cl)c2s1 . Its concentration at 6 h was 1130 ng/mL

###

Below, each of the compounds is paired with its reported pIC50 value.
target: Acetyl-CoA carboxylase 1 (Homo sapiens, UniProt Q13085); test: Inhibition of recombinant human ACC1 assessed as reduction in conversion of acetyl-CoA to malonyl-CoA incubated for 1 to 3 hrs with substrate by MALDI-TOF-MS analysis
API: returns pIC50 as number; meaning -log10 of concentration in mol/L.

The following compounds have reported results that may help.
CC(=O)N[C@@H](C)/C=C/c1ccc(Oc2ccc3nc(C(C)C)sc3c2C(F)(F)F)nc1: 5.13
CCOc1nc2ccc(Oc3ccc(/C=C/[C@H](C)NC(C)=O)cn3)c(Cl)c2s1: 5.71

Could you now consider this next compound?
Entry under test: CC(=O)N[C@@H](C)/C=C/c1ccc(Oc2cc3sc(C)nc3cc2Cl)nc1 . Its pIC50 was 4.28

###

The listing below reports pIC50 for molecules tested on UniProtKB P11712.
Sequence (P11712 whole entry): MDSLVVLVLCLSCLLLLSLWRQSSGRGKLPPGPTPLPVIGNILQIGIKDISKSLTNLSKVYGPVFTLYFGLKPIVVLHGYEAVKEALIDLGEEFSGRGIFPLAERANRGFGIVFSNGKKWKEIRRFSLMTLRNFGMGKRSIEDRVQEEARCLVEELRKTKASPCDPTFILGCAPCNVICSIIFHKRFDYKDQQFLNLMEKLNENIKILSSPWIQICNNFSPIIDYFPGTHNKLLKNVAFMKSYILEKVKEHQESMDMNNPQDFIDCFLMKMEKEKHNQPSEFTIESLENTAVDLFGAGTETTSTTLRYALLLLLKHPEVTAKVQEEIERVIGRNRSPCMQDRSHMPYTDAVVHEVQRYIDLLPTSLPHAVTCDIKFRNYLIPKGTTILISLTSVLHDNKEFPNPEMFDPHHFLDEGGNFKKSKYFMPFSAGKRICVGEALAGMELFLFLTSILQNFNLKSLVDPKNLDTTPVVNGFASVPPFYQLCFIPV
API: returns pIC50 as number; meaning -log10 of concentration in mol/L.

Observed pIC50 on UniProtKB P11712, entry CC(=O)N[C@@H](C)/C=C/c1ccc(Oc2ccc3nc(C(C)C)sc3c2C(F)(F)F)nc1 , equals 4.85

###

assay: Oral bioavailability in C57BL/6 mouse at 2.5 mg/kg; type: ADME, organism-based; settings: in vivo
parameter: bioavailability (%)
Please reply with the bare figure in % and do not write the unit itself.

Entry under test: CCOc1nc2ccc(Oc3ccc(/C=C/[C@H](C)NC(C)=O)cn3)c(Cl)c2s1 . Its bioavailability was 83.5
